Molecular target: Amyloid-beta precursor protein (Homo sapiens)
Assay: Inhibition of amyloid beta 42 (unknown origin) aggregation at 50 uM incubated for 24 hrs by ThT assay relative to control
Calls of active or inactive are those of the source. The rule behind the calls is not given here.
measurement_type: inhibition

Study these solved cases before continuing.
{"given_smiles": "COc1ccc(C[C@H]2c3c(ccc(OC)c3O)CCN2C)cc1", "inhibition": "26.6%"}
{"given_smiles": "COc1cc2c(cc1O)CC[n+]1cc3c(OC)c(O)ccc3cc1-2", "inhibition": "30%"}
{"given_smiles": "COc1cc(O)c2c(c1)C[C@H]1NCCc3cc4c(c-2c31)OCO4", "inhibition": "10.2%"}
{"given_smiles": "COc1cc2c(c(O)c1OC)CC[n+]1cc3c(OC)c(O)ccc3cc1-2", "inhibition": "inactive"}
{"given_smiles": "COc1ccc2c(c1)C[C@@H]1c3c(cc4c(c3-2)OCO4)CCN1C", "inhibition": "38.2%"}

Request: Need inhibition, item "COc1cc(O)cc2c1-c1c3c(cc4c1[C@@H](C2)N(C)CC4)OCO3"
Response: 76%

Request: What do we get for "COc1cc(O)c2c(c1)C[C@@H]1c3c(cc4c(c3-2)OCO4)CC[N@@+]1(C)[O-]" ?
Response: 32.8%

Request: What do we get for "COc1cc2c(cc1OC)[C@@H]1Cc3ccc(O)c(OC)c3CN1CC2" ?
Response: 10.7%

###

Measurement record for UniProt:P06276; quantity recorded: IC50.
I only need the number, in µM, no unit after it.

Request: Need IC50, item "COc1ccc(C[C@H]2c3c(ccc(OC)c3O)CCN2C)cc1"
Response: 33

Request: What do we get for COc1cc2c(cc1O)[C@@H]1Cc3ccc(OC)c(O)c3CN1CC2 [SCOULERINE] ?
Response: 61.3

Request: What do we get for "COc1ccc2c(c1OC)c1c3c4c(cc5c(c42)OCO5)CCN3C(=O)C1=O" ?
Response: 251

Request: What do we get for "COC1=CC(=O)c2c(cc3c4c(cc5c(c24)OCO5)CCN3C)C1=O" ?
Response: 83.5

Request: What do we get for "O=C1C(=O)N2CCc3cc4c(c5c3c2c1c1ccccc15)OCO4" ?
Response: 13.7

Request: What do we get for "COc1cc2c(cc1O)CC[n+]1cc3c(OC)c(O)ccc3cc1-2" ?
Response: 119

###

Provide the reported pIC50 of each item.
Biological target: Amyloid-beta precursor protein (Homo sapiens, UniProt P05067)
Sequence (P05067 whole entry): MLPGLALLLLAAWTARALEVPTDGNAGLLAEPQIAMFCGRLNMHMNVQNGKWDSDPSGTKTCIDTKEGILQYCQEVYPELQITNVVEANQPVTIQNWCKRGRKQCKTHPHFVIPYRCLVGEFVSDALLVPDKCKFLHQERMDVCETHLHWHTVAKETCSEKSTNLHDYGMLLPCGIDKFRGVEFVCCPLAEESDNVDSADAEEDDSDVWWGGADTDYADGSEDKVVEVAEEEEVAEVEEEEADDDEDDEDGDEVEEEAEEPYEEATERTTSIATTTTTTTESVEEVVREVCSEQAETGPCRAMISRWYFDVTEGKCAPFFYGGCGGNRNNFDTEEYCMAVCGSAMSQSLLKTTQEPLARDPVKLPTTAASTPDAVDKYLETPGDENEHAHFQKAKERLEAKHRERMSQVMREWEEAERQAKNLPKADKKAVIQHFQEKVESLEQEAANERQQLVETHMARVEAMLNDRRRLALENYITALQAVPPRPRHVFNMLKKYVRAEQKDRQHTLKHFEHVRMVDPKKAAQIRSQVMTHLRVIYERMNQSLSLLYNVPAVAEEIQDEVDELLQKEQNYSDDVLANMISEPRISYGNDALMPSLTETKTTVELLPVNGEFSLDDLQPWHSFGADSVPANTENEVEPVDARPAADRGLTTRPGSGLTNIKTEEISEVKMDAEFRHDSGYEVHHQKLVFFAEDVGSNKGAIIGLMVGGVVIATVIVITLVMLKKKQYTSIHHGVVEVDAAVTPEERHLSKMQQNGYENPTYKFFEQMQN
Experiment: Inhibition of amyloid beta 42 (unknown origin) aggregation incubated for 24 hrs by ThT assay
pIC50: −log10 of the molar value.

Request: Need pIC50, item "COc1cc2c(cc1O)CC[n+]1cc3c(OC)c(O)ccc3cc1-2"
Response: 4.30

Request: What do we get for "O=C1C(=O)N2CCc3cc4c(c5c3c2c1c1ccccc15)OCO4" ?
Response: < 4.30

Request: What do we get for "COc1ccc2c(c1OC)c1c3c4c(cc5c(c42)OCO5)CCN3C(=O)C1=O" ?
Response: < 4.30

Request: What do we get for "COc1ccc(C[C@H]2c3c(ccc(OC)c3O)CCN2C)cc1" ?
Response: < 4.30

Request: What do we get for COc1ccc2c(c1)C(=O)c1nccc3cc4c(c-2c13)OCO4 [ATHEROSPERMIDINE] ?
Response: 4.50

Request: What do we get for "COc1ccc2c(c1)C[C@@H]1c3c(cc4c(c3-2)OCO4)CCN1C" ?
Response: < 4.30

Request: What do we get for "COc1ccc2c(c1)C[C@H]1NCCc3cc4c(c-2c31)OCO4" ?
Response: < 4.30

###

Measurement record for Acetylcholinesterase (Homo sapiens, UniProt P22303); quantity recorded: IC50.
I only need the number, in µM, no unit after it.

Request: Need IC50, item "COc1cc(O)c2c(c1)C[C@@H]1c3c(cc4c(c3-2)OCO4)CCN1C"
Response: 85

Request: What do we get for "O=C1C(=O)N2CCc3cc4c(c5c3c2c1c1ccccc15)OCO4" ?
Response: 51.3

Request: What do we get for "COc1cc2c(cc1O)CC[n+]1cc3c(OC)c(O)ccc3cc1-2" ?
Response: 17.8

Request: What do we get for "COc1ccc(C[C@H]2c3c(ccc(OC)c3O)CCN2C)cc1" ?
Response: 25.6

Request: What do we get for "COc1ccc2c(c1OC)c1c3c4c(cc5c(c42)OCO5)CCN3C(=O)C1=O" ?
Response: 33

Request: What do we get for "COc1cc2c(cc1O)[C@@H]1Cc3ccc(OC)c(O)c3CN1CC2" ?
Response: 143

Request: What do we get for "COc1cc2c(cc1OC)[C@@H]1Cc3ccc(O)c(OC)c3CN1CC2" ?
Response: 211

Request: What do we get for "COc1ccc2c(c1)C(=O)c1nccc3cc4c(c-2c13)OCO4" ?
Response: 10.9

Request: What do we get for "COc1cc2c(c(O)c1OC)CCN1Cc3c(ccc(O)c3OC)C[C@@H]21" ?
Response: 89

Request: What do we get for "COc1ccc2c(c1)C[C@H]1NCCc3cc4c(c-2c31)OCO4" ?
Response: 126

Request: What do we get for "COc1ccc2c(c1)C[C@@H]1c3c(cc4c(c3-2)OCO4)CCN1C" ?
Response: 26.2

Request: What do we get for "COC1=CC(=O)c2c(cc3c4c(cc5c(c24)OCO5)CCN3C)C1=O" ?
Response: 221

Request: What do we get for "COc1cc(O)c2c(c1)C[C@H]1NCCc3c(OC)c4c(c-2c31)OCO4" ?
Response: 162

Request: What do we get for "COc1cc2c(c(O)c1OC)CC[n+]1cc3c(OC)c(O)ccc3cc1-2" ?
Response: 16.4

Request: What do we get for "COc1cc2c(c(O)c1OC)CC[N@+]1(C)Cc3c(ccc(O)c3OC)C[C@@H]21" ?
Response: 131

###

Experiment: Antioxidant activity assessed as ABTS radical scavenging activity incubated for 10 min by spectrophotometric analysis
Type: functional
measurement_type: pIC50
Value format note: pIC50 is -log10 of concentration (mol/L); just state the number.

Request: Need pIC50, item "COc1cc(O)c2c(c1)C[C@@H]1c3c(cc4c(c3-2)OCO4)CCN1C"
Response: 4.83

Request: What do we get for "COc1cc2c(c(O)c1OC)CC[N@+]1(C)Cc3c(ccc(O)c3OC)C[C@@H]21" ?
Response: 4.36

Request: What do we get for "COc1cc2c(cc1O)CC[n+]1cc3c(OC)c(O)ccc3cc1-2" ?
Response: 4.58

Request: What do we get for "COc1cc(O)cc2c1-c1c3c(cc4c1[C@@H](C2)N(C)CC4)OCO3" ?
Response: 4.78

Request: What do we get for "COc1cc2c(cc1O)[C@@H]1Cc3ccc(OC)c(O)c3CN1CC2" ?
Response: 4.36

Request: What do we get for "COc1ccc(C[C@H]2c3c(ccc(OC)c3O)CCN2C)cc1" ?
Response: 4.42

Request: What do we get for "COc1cc(O)c2c(c1)C[C@@H]1c3c(cc4c(c3-2)OCO4)CC[N@+]1(C)[O-]" ?
Response: 5.00

Request: What do we get for "COc1cc(O)c2c(c1)C[C@H]1NCCc3c(OC)c4c(c-2c31)OCO4" ?
Response: 4.87

Request: What do we get for Cc1c(C)c2c(c(C)c1O)CCC(C)(C(=O)O)O2 (stereo unspecified) ?
Response: 4.96

###

Biological target: Amyloid-beta precursor protein (Homo sapiens, UniProt P05067)
Test: Inhibition of amyloid beta 42 (unknown origin) aggregation at 50 uM incubated for 24 hrs by ThT assay relative to control
Is inhibition at least 40%? Then true. If not, false.

Request: Could you verify whether the entry "COc1cc(O)c2c(c1)C[C@@H]1c3c(cc4c(c3-2)OCO4)CC[N@+]1(C)[O-]" shows inhibition of no less than 40%?
Response: false

Request: What do we get for COc1cc2c(cc1O)[C@@H]1Cc3ccc(OC)c(O)c3CN1CC2 [SCOULERINE] ?
Response: false

Request: What do we get for "COc1cc(O)c2c(c1)C[C@@H]1c3c(cc4c(c3-2)OCO4)CCN1C" ?
Response: false

Request: What do we get for "COC1=C(CC(=O)CCc2ccccc2)C(=O)O[C@@H]1O" ?
Response: true

Request: What do we get for "COc1ccc2c(c1)C[C@H]1NCCc3cc4c(c-2c31)OCO4" ?
Response: false

###

Measurement record for Cholinesterase (Homo sapiens, UniProt P06276); quantity recorded: IC50.

Request: Reported IC50 for Cholinesterase (Homo sapiens, UniProt P06276), given "COc1cc2c(c(O)c1OC)CC[n+]1cc3c(OC)c(O)ccc3cc1-2" ?
Response: > 300 µM

Request: What do we get for "COc1cc(O)cc2c1-c1c3c(cc4c1[C@@H](C2)N(C)CC4)OCO3" ?
Response: > 300 µM

Request: What do we get for "COc1cc2c(c(O)c1OC)CCN1Cc3c(ccc(O)c3OC)C[C@@H]21" ?
Response: > 300 µM

Request: What do we get for "COc1ccc2c(c1)C[C@@H]1c3c(cc4c(c3-2)OCO4)CCN1C" ?
Response: 36.4 µM

Request: What do we get for "COc1cc2c(cc1OC)[C@@H]1Cc3ccc(O)c(OC)c3CN1CC2" ?
Response: 124 µM
